molecular target: T1, recombinant biotinylated human PAR2 extracellular domain (residues 1-75), N-terminal AviTag, C-terminal Flag … (human, UniProt P55085 26-75, biotin on the AviTag (enzymatic biotinylation)); assay: HTRF competition with Par0067 IgG, scFv
T1 construct: also called Bio-human-PAR2 ECD; human PAR2 ECD; not shown: N-terminal AviTag (Avidity LLC); C-terminal Flag and poly Histidine tags
T1 sequence (P55085 26-75): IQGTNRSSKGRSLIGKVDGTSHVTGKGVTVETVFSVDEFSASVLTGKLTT
property: Fold IC50 pH 7.4 (Variant v Par0067) (fold)
Express the result in fold but write the number alone.

| binder | Fold IC50 pH 7.4 (Variant v Par0067) / fold |
| --- | --- |
| PaB670077 scFv (scFv, V domains shown, purified scFv; also called ZZ1OZJ-C11) VH: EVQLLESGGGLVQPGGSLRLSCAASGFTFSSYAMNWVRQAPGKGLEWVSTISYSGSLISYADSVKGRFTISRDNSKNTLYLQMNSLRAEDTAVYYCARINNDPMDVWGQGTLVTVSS VL: SIELTQPPSVSVSPGQTASITCSGDNLGKKYVQWYQQKPGQSPVLVIYDDSNRPSGIPERFSGSNSGNTATLTISGTQAMDEADYYCHHWHGHHTTGETNHFGGGTKLTVL | 16.8 |
| PaB670084 scFv (scFv, V domains shown, purified scFv; also called ZZ1PXA-A05) VH: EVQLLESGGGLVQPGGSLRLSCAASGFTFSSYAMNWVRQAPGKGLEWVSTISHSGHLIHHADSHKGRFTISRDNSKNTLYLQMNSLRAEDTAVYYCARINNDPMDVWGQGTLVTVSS VL: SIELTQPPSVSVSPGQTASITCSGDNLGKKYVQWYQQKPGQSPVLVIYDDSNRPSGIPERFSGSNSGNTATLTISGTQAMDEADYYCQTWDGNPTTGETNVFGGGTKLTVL | 16.5 |
| PaB670106 scFv (scFv, V domains shown, purified scFv; also called ZZ1RD0-G02) VH: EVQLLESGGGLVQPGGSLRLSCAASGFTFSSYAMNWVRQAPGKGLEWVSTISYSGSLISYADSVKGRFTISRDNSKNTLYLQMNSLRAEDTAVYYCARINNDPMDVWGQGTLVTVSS VL: SIELTQPPSVSVSPGQTASITCSGDNLGKKYVQWYQQKPGQSPVLVIYDDSNRPSGIPERFSGSNSGNTATLTISGTQAMDEADYYCHTWDHNPHHHHTNHFGGGTKLTVL | 94.8 |

# ---- query binder ----
GET /values?readout=Fold IC50 pH 7.4 (Variant v Par0067)&item= PaB670080 scFv (scFv, V domains shown, purified scFv) VH: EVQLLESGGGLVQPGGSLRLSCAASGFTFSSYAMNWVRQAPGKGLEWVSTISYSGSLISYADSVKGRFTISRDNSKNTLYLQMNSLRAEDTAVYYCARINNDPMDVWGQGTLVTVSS VL: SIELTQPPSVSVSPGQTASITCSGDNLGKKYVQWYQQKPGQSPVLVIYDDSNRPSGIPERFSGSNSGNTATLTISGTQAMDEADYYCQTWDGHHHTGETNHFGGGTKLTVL
5
